Target: plasma kallikrein (Homo sapiens, UniProt P03952)
Construct: from tissue
Sequence (P03952 391-638 limits assumed): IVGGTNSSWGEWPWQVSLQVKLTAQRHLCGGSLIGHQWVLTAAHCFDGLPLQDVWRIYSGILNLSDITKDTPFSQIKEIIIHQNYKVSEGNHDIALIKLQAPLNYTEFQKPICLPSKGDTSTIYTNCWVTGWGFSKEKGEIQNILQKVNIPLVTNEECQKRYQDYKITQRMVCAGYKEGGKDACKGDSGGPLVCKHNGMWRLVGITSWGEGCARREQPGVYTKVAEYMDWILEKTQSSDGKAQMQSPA
Sequence (P03952 20-390 partner limits assumed): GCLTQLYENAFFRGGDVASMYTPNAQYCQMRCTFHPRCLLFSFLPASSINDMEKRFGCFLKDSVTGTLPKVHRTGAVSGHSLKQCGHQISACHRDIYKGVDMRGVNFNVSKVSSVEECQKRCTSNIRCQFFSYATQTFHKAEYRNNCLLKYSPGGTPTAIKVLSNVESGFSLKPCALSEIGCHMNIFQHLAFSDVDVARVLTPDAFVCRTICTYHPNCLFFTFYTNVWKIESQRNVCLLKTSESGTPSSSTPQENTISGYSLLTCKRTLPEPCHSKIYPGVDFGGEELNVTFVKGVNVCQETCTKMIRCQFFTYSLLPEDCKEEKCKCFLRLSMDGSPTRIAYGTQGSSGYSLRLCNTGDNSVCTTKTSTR
Assay: Neat human plasma assay, FXIIa contact pathway-activated, PFR-AMC substrate
Type: biochemical
Details: citrated human plasma 78% final, 10 nM human FXIIa, 100 μM PFR-AMC; read-out: Human Plasma Assay: IC90
measured_property: IC90

| compound | measured_property | result |
| --- | --- | --- |
| CN(C)C1CCN(c2cc(C3CC3)cn3cc(CNc4cc(NC(=O)[C@H]5C[C@@H]5c5cccc(Cl)c5)ncn4)nc23)C1 (mixture of isomers) [Example I-13] | IC90 | 1.5 to 10 µM |
| CN1C(=O)CN(c2cc(C3CC3)cn3cc(CNc4cc(NC(=O)[C@H]5C[C@@H]5c5cc(Cl)ccn5)ncn4)nc23)C1=O (single isomer, unassigned) [Example I-264] | IC90 | 0.4 to 1.5 µM |
| Cc1ccnc([C@H]2C[C@@H]2C(=O)Nc2cc(N(C)Cc3cn4cc(C5CC5)cc(N5CC(=O)N(C)C5=O)c4n3)cnn2)n1 [Example I-254] | IC90 | < 0.4 µM |
